test: Phase 1 trial: population PK model (NONMEM, 1-compartment, oral absorption) and simulations; details: both, human, in vivo, 33000 mcg
metric: Tmax (h)
Express your answer in h, writing the number without its unit.

query: Look up Tmax: O=[Se](O)O [sodium selenite, Sodium selenite pentahydrate]
result: 4.35

###

experiment: Phase 1 trial: population PK model (NONMEM, 1-compartment, oral absorption) and simulations; details: human, in vivo, po, 16.5 mg
metric: AUC (ng·h/mL)
Express your answer in ng·h/mL, writing the number without its unit.

query: Look up AUC: O=[Se](O)O [sodium selenite, Sodium selenite pentahydrate]
result: 8360

###

test: Phase 1 trial: population PK model (NONMEM, 1-compartment, oral absorption) and simulations; details: human, in vivo, po, 16.5 mg
metric: Cmax (ng/mL)
Express your answer in ng/mL, writing the number without its unit.

query: Look up Cmax: O=[Se](O)O [sodium selenite, Sodium selenite pentahydrate]
result: 366
